Form: system (Human α7 nAChR (Homo sapiens)), quantity (Ki), values below.
Measure: Ki (µM)

>  <Molecule>
CN[C@@H](C)C/C=C/c1cnc(Cl)c(O[C@H]2CCN(C(=O)CC3CCCC3)C2)c1

>  <Unit abbreviation>
µM

>  <Observed value>
36

$$$$
>  <Molecule>
CN[C@@H](C)C/C=C/c1cnc(Cl)c(O[C@@H]2CCN(C(=O)CC(C)(C)C)C2)c1

>  <Unit abbreviation>
µM

>  <Observed value>
6.5

$$$$
>  <Molecule>
CN[C@@H](C)C/C=C/c1cncc(O[C@@H]2CCN(C(=O)C(C)C)C2)c1

>  <Unit abbreviation>
µM

>  <Observed value>
35

$$$$
>  <Molecule>
CN[C@@H](C)C/C=C/c1cnc(Cl)c(O[C@H]2CCN(C(=O)c3ccc(F)cc3F)C2)c1

>  <Unit abbreviation>
µM

>  <Observed value>
23

$$$$
>  <Molecule>
CN[C@@H](C)C/C=C/c1cncc(O[C@@H]2CCN(C(=O)c3ccc(F)cc3F)C2)c1

>  <Unit abbreviation>
µM

>  <Observed value>
41

$$$$
>  <Molecule>
CN[C@@H](C)C/C=C/c1cncc(O[C@H]2CCN(C(=O)CC(C)(C)C)C2)c1

>  <Unit abbreviation>
µM

>  <Observed value>
65

$$$$
>  <Molecule>
CN[C@@H](C)C/C=C/c1cnc(Cl)c(O[C@@H]2CCN(C(=O)C3CCCC3)C2)c1

>  <Unit abbreviation>
µM

>  <Observed value>
6.1

$$$$
>  <Molecule>
CN[C@@H](C)C/C=C/c1cncc(O[C@@H]2CCN(C(=O)CC(C)(C)C)C2)c1

>  <Unit abbreviation>
µM

>  <Observed value>
260

$$$$
>  <Molecule>
CN[C@@H](C)C/C=C/c1cncc(O[C@H]2CCN(C(=O)c3ccc(F)cc3)C2)c1

>  <Unit abbreviation>
µM

>  <Observed value>
58

$$$$
>  <Molecule>
CN[C@@H](C)C/C=C/c1cncc(O[C@H]2CCN(C(=O)CC(F)(F)F)C2)c1

>  <Unit abbreviation>
µM

>  <Observed value>
68

$$$$
>  <Molecule>
CN[C@@H](C)C/C=C/c1cncc(O[C@H]2CCN(C(=O)c3ccc(F)cc3F)C2)c1

>  <Unit abbreviation>
µM

>  <Observed value>
47

$$$$
>  <Molecule>
CN[C@@H](C)C/C=C/c1cnc(Cl)c(O[C@H]2CCN(C(=O)C(C)(C)C)C2)c1

>  <Unit abbreviation>
µM

>  <Observed value>
39

$$$$
>  <Molecule>
CN[C@@H](C)C/C=C/c1cnc(Cl)c(O[C@@H]2CCN(C(=O)CCC(F)(F)F)C2)c1 [drawing 62]

>  <Unit abbreviation>
µM

>  <Observed value>
55

$$$$
>  <Molecule>
CN[C@@H](C)C/C=C/c1cncc(O[C@H]2CCN(C(=O)C3CCCC3)C2)c1

>  <Unit abbreviation>
µM

>  <Observed value>
85

$$$$
>  <Molecule>
CN[C@@H](C)C/C=C/c1cnc(Cl)c(O[C@@H]2CCN(C(=O)CC(F)(F)F)C2)c1

>  <Unit abbreviation>
µM

>  <Observed value>
300

$$$$
>  <Molecule>
CN[C@@H](C)C/C=C/c1cncc(O[C@@H]2CCN(C(=O)C(C)(C)C)C2)c1

>  <Unit abbreviation>
µM

>  <Observed value>
51

$$$$
>  <Molecule>
CN[C@@H](C)C/C=C/c1cncc(O[C@H]2CCN(C(=O)C(C)(C)C)C2)c1

>  <Unit abbreviation>
µM

>  <Observed value>
100

$$$$
>  <Molecule>
CN[C@@H](C)C/C=C/c1cncc(O[C@@H]2CCN(C(=O)C3CCCC3)C2)c1

>  <Unit abbreviation>
µM

>  <Observed value>
26

$$$$
>  <Molecule>
CN[C@@H](C)C/C=C/c1cnc(Cl)c(O[C@@H]2CCN(C(=O)c3ccc(F)cc3)C2)c1

>  <Unit abbreviation>
µM

>  <Observed value>
61

$$$$

###

pKi overview
molecular target: Human Ganglion (Homo sapiens, UniProt P30926+P32297); construct: endogenous in cells; experiment: Competition binding to receptors in membrane preparations, human ganglion subtype ([3H]-epibatidine); details: read-out: Human Ganglion Ki
Sequence (P32297 32-505): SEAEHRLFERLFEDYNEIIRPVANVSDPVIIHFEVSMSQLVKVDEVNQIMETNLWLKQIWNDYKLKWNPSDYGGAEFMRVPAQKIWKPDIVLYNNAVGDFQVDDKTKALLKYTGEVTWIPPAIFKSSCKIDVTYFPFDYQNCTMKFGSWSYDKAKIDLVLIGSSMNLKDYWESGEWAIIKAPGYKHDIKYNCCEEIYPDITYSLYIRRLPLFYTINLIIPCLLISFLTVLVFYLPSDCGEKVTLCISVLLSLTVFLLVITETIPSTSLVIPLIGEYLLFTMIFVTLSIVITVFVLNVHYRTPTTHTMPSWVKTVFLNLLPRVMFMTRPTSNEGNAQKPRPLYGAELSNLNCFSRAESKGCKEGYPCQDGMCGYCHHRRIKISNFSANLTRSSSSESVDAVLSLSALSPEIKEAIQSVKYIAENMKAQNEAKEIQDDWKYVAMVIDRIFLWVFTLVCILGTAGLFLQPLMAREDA
Sequence (P30926 22-498): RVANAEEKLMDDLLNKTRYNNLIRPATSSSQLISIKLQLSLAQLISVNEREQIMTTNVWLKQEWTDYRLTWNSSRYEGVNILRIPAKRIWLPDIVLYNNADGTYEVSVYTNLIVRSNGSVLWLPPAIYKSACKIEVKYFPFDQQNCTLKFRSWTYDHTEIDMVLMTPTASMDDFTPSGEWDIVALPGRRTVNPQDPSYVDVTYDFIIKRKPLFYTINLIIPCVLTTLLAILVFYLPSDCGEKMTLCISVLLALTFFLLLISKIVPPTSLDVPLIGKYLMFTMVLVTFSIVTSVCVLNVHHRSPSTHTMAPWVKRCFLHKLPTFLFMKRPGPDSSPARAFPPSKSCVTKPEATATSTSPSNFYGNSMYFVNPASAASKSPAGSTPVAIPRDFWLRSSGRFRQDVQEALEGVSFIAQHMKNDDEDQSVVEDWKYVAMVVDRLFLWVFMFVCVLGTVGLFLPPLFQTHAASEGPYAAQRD
pKi: −log10 of the molar value.

>  <Smiles code>
CN[C@@H](C)C/C=C/c1cncc(O[C@H]2CCN(C(=O)OCCOC)C2)c1

>  <pKi>
3.57

$$$$
>  <Smiles code>
CN[C@@H](C)C/C=C/c1cncc(OC2CN(C(=O)c3ccco3)C2)c1

>  <pKi>
4.70

$$$$
>  <Smiles code>
CCCOC(=O)N1CC[C@@H](Oc2cncc(/C=C/C[C@H](C)NC)c2)C1

>  <pKi>
4.43

$$$$
>  <Smiles code>
CN[C@@H](C)C/C=C/c1cncc(O[C@@H]2CCN(C(=O)OCCOC)C2)c1

>  <pKi>
4.32

$$$$
>  <Smiles code>
CCCOC(=O)N1CC[C@H](Oc2cncc(/C=C/C[C@H](C)NC)c2)C1

>  <pKi>
4.60

$$$$
>  <Smiles code>
CN[C@@H](C)C/C=C/c1cncc(OC2CN(C(=O)COC)C2)c1

>  <pKi>
4.38

$$$$

###

biological target: Human Ganglion (Homo sapiens, UniProt P30926+P32297); construct: endogenous in cells; test: Competition binding to receptors in membrane preparations, human ganglion subtype ([3H]-epibatidine)
pKi: −log10 of the molar value.
Would you mind labelling by pKi? At or over 5 is true (1), under is false (0).

>  <Smiles code>
CN[C@@H](C)C/C=C/c1cncc(O[C@@H]2CCN(C(=O)C3CC3)C2)c1

>  <Answer label>
false (0)

$$$$
>  <Smiles code>
CN[C@@H](C)C/C=C/c1cncc(O[C@H]2CCN(C(=O)C(C)C)C2)c1

>  <Answer label>
false (0)

$$$$
>  <Smiles code>
CN[C@@H](C)C/C=C/c1cnc(Cl)c(O[C@H]2CCN(C(=O)C(C)(C)C)C2)c1

>  <Answer label>
true (1)

$$$$
>  <Smiles code>
CN[C@@H](C)C/C=C/c1cncc(O[C@H]2CCN(C(=O)CCC(F)(F)F)C2)c1

>  <Answer label>
false (0)

$$$$
>  <Smiles code>
CN[C@@H](C)C/C=C/c1cncc(O[C@H]2CCN(C(=O)C(C)(C)C)C2)c1

>  <Answer label>
false (0)

$$$$
>  <Smiles code>
CN[C@@H](C)C/C=C/c1cnc(Cl)c(O[C@H]2CCN(C(=O)CC(C)(C)C)C2)c1

>  <Answer label>
false (0)

$$$$
>  <Smiles code>
CN[C@@H](C)C/C=C/c1cncc(O[C@H]2CCN(C(=O)C3CCOCC3)C2)c1

>  <Answer label>
false (0)

$$$$
>  <Smiles code>
CN[C@@H](C)C/C=C/c1cncc(O[C@H]2CCN(C(=O)c3ccc(F)cc3F)C2)c1

>  <Answer label>
true (1)

$$$$
>  <Smiles code>
CN[C@@H](C)C/C=C/c1cncc(O[C@H]2CCN(C(=O)c3ccco3)C2)c1

>  <Answer label>
false (0)

$$$$
>  <Smiles code>
CN[C@@H](C)C/C=C/c1cncc(OC2CN(C(=O)OCCOC)C2)c1

>  <Answer label>
false (0)

$$$$
>  <Smiles code>
CN[C@@H](C)C/C=C/c1cncc(O[C@@H]2CCN(C(=O)CC3CCCC3)C2)c1

>  <Answer label>
true (1)

$$$$
>  <Smiles code>
CN[C@@H](C)C/C=C/c1cnc(Cl)c(O[C@H]2CCN(C(=O)c3ccc(F)cc3)C2)c1

>  <Answer label>
false (0)

$$$$
>  <Smiles code>
CN[C@@H](C)C/C=C/c1cncc(O[C@@H]2CCN(C(C)=O)C2)c1

>  <Answer label>
false (0)

$$$$
>  <Smiles code>
CN[C@@H](C)C/C=C/c1cnc(Cl)c(O[C@H]2CCN(C(=O)CCC(F)(F)F)C2)c1

>  <Answer label>
false (0)

$$$$
>  <Smiles code>
CCC(=O)N1CC[C@H](Oc2cncc(/C=C/C[C@H](C)NC)c2)C1

>  <Answer label>
false (0)

$$$$

###

molecular target: Human α7 nAChR (Homo sapiens, UniProt P36544)
Sequence (P36544 23-502): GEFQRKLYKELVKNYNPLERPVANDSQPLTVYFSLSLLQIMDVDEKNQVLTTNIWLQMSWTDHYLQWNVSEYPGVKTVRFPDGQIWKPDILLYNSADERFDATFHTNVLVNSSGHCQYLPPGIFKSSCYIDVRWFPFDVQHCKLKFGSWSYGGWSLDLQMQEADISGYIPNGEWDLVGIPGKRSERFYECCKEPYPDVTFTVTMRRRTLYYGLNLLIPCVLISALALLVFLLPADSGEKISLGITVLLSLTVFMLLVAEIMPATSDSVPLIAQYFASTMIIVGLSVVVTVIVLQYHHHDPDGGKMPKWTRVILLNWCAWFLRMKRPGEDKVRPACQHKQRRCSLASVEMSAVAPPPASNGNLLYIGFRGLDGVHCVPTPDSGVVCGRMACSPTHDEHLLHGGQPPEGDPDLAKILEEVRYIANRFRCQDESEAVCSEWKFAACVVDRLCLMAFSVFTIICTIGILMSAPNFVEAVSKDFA
pKi: −log10 of the molar value.
Assign Fulfilled to entries whose pKi meets or exceeds 4; assign Not fulfilled to the rest.

>  <Smiles code>
CN[C@@H](C)C/C=C/c1cncc(O[C@H]2CCN(C(=O)CCC(F)(F)F)C2)c1

>  <Answer label>
Fulfilled

$$$$
>  <Smiles code>
CN[C@@H](C)C/C=C/c1cncc(O[C@@H]2CCN(C(=O)CCC(F)(F)F)C2)c1

>  <Answer label>
Not fulfilled

$$$$
>  <Smiles code>
CN[C@@H](C)C/C=C/c1cnc(Cl)c(O[C@H]2CCN(C(=O)C3CCCC3)C2)c1

>  <Answer label>
Not fulfilled

$$$$
>  <Smiles code>
CN[C@@H](C)C/C=C/c1cnc(Cl)c(O[C@@H]2CCN(C(=O)C3CCC3)C2)c1

>  <Answer label>
Fulfilled

$$$$
>  <Smiles code>
CN[C@@H](C)C/C=C/c1cnc(Cl)c(O[C@H]2CCN(C(=O)C(C)C)C2)c1

>  <Answer label>
Fulfilled

$$$$
>  <Smiles code>
CN[C@@H](C)C/C=C/c1cnc(Cl)c(O[C@H]2CCN(C(=O)CCC(F)(F)F)C2)c1

>  <Answer label>
Fulfilled

$$$$
>  <Smiles code>
CN[C@@H](C)C/C=C/c1cncc(O[C@H]2CCN(C(=O)C(C)C)C2)c1

>  <Answer label>
Fulfilled

$$$$
>  <Smiles code>
CN[C@@H](C)C/C=C/c1cnc(Cl)c(O[C@@H]2CCN(C(=O)CC3CCCC3)C2)c1

>  <Answer label>
Fulfilled

$$$$
>  <Smiles code>
CN[C@@H](C)C/C=C/c1cncc(O[C@H]2CCN(C(=O)C3CCC3)C2)c1

>  <Answer label>
Fulfilled

$$$$
